biological target: RXRγ (UniProt P28705); assay: holoreceptor transactivation assay; assay type: cell-based; conditions: NA = Not Active; read-out: RXR Trans. EC50 (nM) Y
experimentalEndpoint: EC50

See these solved cases before continuing.
In: Value wanted: EC50 (RXRγ (UniProt P28705)) of entry CC1=CCC(C)(C)c2cc(N(C)c3ccc(C(=O)O)cc3)c(C)cc21 [Compound 44]
Out: > 1000 nM

In: Hi! What's the reported EC50 for CCN(c1ccc(C(=O)O)cc1)c1cc2c(cc1C)C(C)=CCC2(C)C [Compound 45] on RXRγ (UniProt P28705)?
Out: > 1000 nM

---
In: RXRγ (UniProt P28705) / EC50 / CCCCCCOc1cc2c(cc1N(CCC)c1ccc(C(=O)O)cc1)C(C)=CCC2(C)C [Compound 145] : value?
Out: > 1000 nM
